Just for reference, patent US11174250B2 is where these values come from.

# test target: WDR5 protein (Homo sapiens (Human))
# protocol description: Surface Plasmon Resonance (SPR) assay
# Type: binding
# condition notes: SPR, Table 1; read-out: WDR5 binding affinity (KD)
pKd: −log10 of the molar value.
recorded endpoint: pKd

A: COc1cccc(C(=O)Nc2cc(-c3cc(CN4CCOCC4)ccc3F)ccc2N2CCN(C)CC2)c1
B: Cc1cc(C(=O)Nc2cc(-c3ccc(OC4CCOCC4)nc3F)ccc2N2CCN(C)CC2)cc(C)c1F
Between these two entries, A and B , state which has the higher pKd. Reply briefly: the label of your chosen item.
B
(B: 7.15, A: 6.00)

A: Cc1c(F)ccc(C(=O)Nc2cc(-c3cc(CN4CCOCC4)ccc3F)ccc2N2CCN(C)CC2)c1Cl
B: C[C@@H]1CN(c2ccc(-c3ccc(C(=O)NC(C)(C)CC(C)(C)C)c(F)c3F)cc2NC(=O)c2c[nH]c(=O)cc2C(F)(F)F)C[C@H](C)N1C
Between these two entries, A and B , state which has the higher pKd. Reply briefly: the label of your chosen item.
B

A: CN1CCN(c2ccc(-c3cc(CN4CC[C@@H](O)C4)ccc3F)cc2NC(=O)c2c[nH]c(=O)cc2C(F)(F)F)CC1
B: C[C@@H]1CN(c2ccc(-c3cc(C(=O)N(C)C4CCCCC4)ccc3F)cc2NC(=O)c2c[nH]c(=O)cc2C(F)(F)F)C[C@H](C)N1C
C: Cc1cc(C(=O)Nc2cc(-c3cc(CN4CCOCC4)ccc3F)ccc2N2CCC(N(C)C)C2)cc(C)c1F (centres unmarked)
D: Cc1cc(C(=O)Nc2cc(-c3cc(CN4CCOCC4)ccc3F)ccc2N2CCN(C)CC2)cc(C(F)(F)F)c1F
E: C[C@@H]1CN(c2ccc(-c3c(F)ccc(CNC4CCCCC4)c3F)cc2NC(=O)c2c[nH]c(=O)cc2C(F)(F)F)C[C@H](C)N1C
Reorder: pKd, max to min. I would appreciate it if you listed the labels in the requested order.
B, A, E, D, C

A: CC(C)COc1ccc(F)c(-c2ccc(N3CCN(C)CC3)c(NC(=O)c3c[nH]c(=O)cc3C(F)(F)F)c2)c1
B: CN1CCN(c2ccc(-c3cc(CNC4CCOCC4)ccc3F)cc2NC(=O)c2c[nH]c(=O)cc2C(F)(F)F)CC1
C: CN1CCN(c2ccc(-c3cc(CN4CCOCC4)ccc3F)cc2NC(=O)c2cn(C)c(=O)cc2C(F)(F)F)CC1
Provide the items ranked by increasing pKd. I would appreciate it if you listed the labels in the requested order.
A, C, B
(A: 7.12, C: 7.82, B: 8.30)

----------
# test target: WDR5 protein (Homo sapiens (Human))
# protocol description: Surface Plasmon Resonance (SPR) assay
# Assay type: binding
# condition notes: SPR, τ=1/koff; read-out: Residence Time (t, min)
recorded endpoint: residence time (min)

1: CN1CCN(c2ccc(-c3cc(C(N)=O)c(O)cc3F)cc2NC(=O)c2c[nH]c(=O)cc2C(F)(F)F)CC1 [Example 4]
2: C[C@@H]1CN(c2ccc(-c3ccc(OCC4CC4)nc3F)cc2NC(=O)c2c[nH]c(=O)cc2C(F)(F)F)C[C@H](C)N1C [Example 82]
3: C[C@@H]1CN(c2ccc(-c3c(F)cc(CNC4CCCCC4)cc3F)cc2NC(=O)c2c[nH]c(=O)cc2C(F)(F)F)C[C@H](C)N1C [Example 115]
Using the recorded residence time, list the entries above from smallest to largest. I would appreciate it if you listed the labels in the requested order.
1, 3, 2
(1: 0.88 min, 3: 1.5 min, 2: 23 min)

----------
# test target: WDR5 protein (Homo sapiens (Human))
# protocol description: Surface Plasmon Resonance (SPR) assay
# Type: binding
# condition notes: SPR, τ=1/koff; read-out: Residence Time (t, min)
recorded endpoint: residence time (min)

a: CC(=O)Nc1cc(C)c(C(=O)Nc2cc(-c3cc(CN4CCOCC4)ccc3F)ccc2N2CCN(C)CC2)cn1
b: C[C@@H]1CN(c2ccc(-c3ccc(C(N)=O)cc3F)cc2NC(=O)c2c[nH]c(=O)cc2C(F)(F)F)C[C@H](C)N1C
c: Cc1cc(C(=O)Nc2cc(-c3ccc(OC4CCOCC4)nc3F)ccc2N2CCN(C)CC2)cc(C)c1F
d: CN1CCN(c2ncc(-c3cc(CNC4CCCCC4)ccc3F)cc2NC(=O)c2c[nH]c(=O)cc2C(F)(F)F)CC1
Using the recorded residence time, list the entries above from smallest to largest. I would appreciate it if you listed the labels in the requested order.
d, c, a, b

----------
# test target: WDR5 protein (Homo sapiens (Human), UniProt P61964)
# protocol description: Surface Plasmon Resonance (SPR) assay
# Assay type: binding
# condition notes: SPR, τ=1/koff; read-out: Residence Time (t, min)
recorded endpoint: residence time (min)

a: CN1CCN(c2ccc(-c3ccccc3F)cc2NC(=O)c2c[nH]c(=O)cc2C(F)(F)F)CC1 [Example 25]
b: C[C@@H]1CN(c2ccc(-c3cc(C(N)=O)c(F)cc3F)cc2NC(=O)c2c[nH]c(=O)cc2C(F)(F)F)C[C@H](C)N1C [Example 121]
c: CN1CCN(c2ccc(-c3cc(OC4CCOCC4)ncc3F)cc2NC(=O)c2c[nH]c(=O)cc2C(F)(F)F)CC1 [Example 31]
Take the molecules listed above and rank them by residence time; the top slot goes to the highest value. I would appreciate it if you listed the labels in the requested order.
c, b, a

----------
# test target: WDR5 protein (Homo sapiens (Human), UniProt P61964)
# protocol description: Surface Plasmon Resonance (SPR) assay
# Format: binding
# condition notes: SPR, Table 2; read-out: WDR5 binding affinity SPR (KD)
recorded endpoint: Kd (nM)

Example entries and their recorded answers appear below.
Quick one: Kd for CN1CCN(c2ccc(-c3cc(CN4CCOCC4)ccc3F)cc2NC(=O)c2c[nH]c(=O)cc2C(F)(F)F)CC1CO (stereo not shown) [Example 65] ?
9.4

Quick one: Kd for CN1CCN(c2ccc(-c3ccc(CNC4CCCCC4)cc3F)cc2NC(=O)c2c[nH]c(=O)cc2C(F)(F)F)CC1 [Example 34] ?
21

Quick one: Kd for C[C@@H]1CN(c2ccc(-c3ccc(OCC4CC4)nc3F)cc2NC(=O)c2c[nH]c(=O)cc2C(F)(F)F)C[C@H](C)N1C [Example 82] ?
0.7

Quick one: Kd for C[C@@H]1CN(c2ccc(-c3cc(CN(C)C4COC4)c(F)cc3F)cc2NC(=O)c2c[nH]c(=O)cc2C(F)(F)F)C[C@H](C)N1C [Example 113] ?
8

Quick one: Kd for CN1CCN(c2ccc(-c3ccnc(N4CCOCC4)c3F)cc2NC(=O)c2c[nH]c(=O)cc2C(F)(F)F)CC1 [Example 39] ?
28

A: C[C@@H]1CN(c2ccc(-c3cc(C(=O)NC4CC4)ccc3F)cc2NC(=O)c2c[nH]c(=O)cc2C(F)(F)F)C[C@H](C)N1C [Example 93]
B: CN1CCN(c2ccc(-c3cc(CNC(C)(C)C)ccc3F)cc2NC(=O)c2c[nH]c(=O)cc2C(F)(F)F)CC1 [Example 35]
Between these two entries, A and B , state which has the higher Kd. Reply briefly: the label of your chosen item.
B
(B: 9 nM, A: 3 nM)

----------
# test target: WDR5 protein (Homo sapiens (Human))
# protocol description: Surface Plasmon Resonance (SPR) assay
# Type: binding
# condition notes: SPR, Table 2; read-out: WDR5 binding affinity SPR (KD)
pKd: −log10 of the molar value.
recorded endpoint: pKd

Example entries and their recorded answers appear below.
Quick one: pKd for COc1cc(C(F)(F)F)c(C(=O)Nc2cc(-c3cc(CN4CCN(CC5CC5)CC4)ccc3F)ccc2N2CCN(C)CC2)cn1 ?
< 6.70

Quick one: pKd for Cc1cc(C(=O)Nc2cc(-c3cc(CN4CCOCC4)ccc3F)ccc2N2CC3CN(C)CC3C2)cc(C)c1F (stereo not shown) ?
< 6.70

More entries:
Quick one: pKd for COc1cc(C(F)(F)F)c(C(=O)Nc2cc(-c3cc(CN4CCC(F)CC4)ccc3F)ccc2N2CCN(C)CC2)cn1 ?
< 6.70

Quick one: pKd for C[C@@H]1CN(c2ccc(-c3cc(CN4CCOCC4)cnc3F)cc2NC(=O)c2c[nH]c(=O)cc2C(F)(F)F)C[C@H](C)N1C ?
8.15

----------
# test target: UniProt:P61964
# protocol description: Surface Plasmon Resonance (SPR) assay
# Format: binding
# condition notes: SPR, Table 1; read-out: WDR5 binding affinity (KD)
pKd: −log10 of the molar value.
recorded endpoint: pKd

Example entries and their recorded answers appear below.
What pKd appears in the records for this compound with UniProt:P61964? Cc1cc(C(=O)Nc2cc(-c3cc(CN4CCOCC4)ccc3F)ccc2N2CCN(CC(F)(F)F)CC2)cc(C)c1F
< 6.70

What pKd appears in the records for this compound with UniProt:P61964? COc1cc(C(F)(F)F)c(C(=O)Nc2cc(-c3cc(CN4C5COCC4C5)ccc3F)ccc2N2CCN(C)CC2)cn1
< 6.70

What pKd appears in the records for this compound with UniProt:P61964? COc1cc(C(F)(F)F)c(C(=O)Nc2cc(-c3cc(CN(C)[C@H]4CCOC4)ccc3F)ccc2N2CCN(C)CC2)cn1
< 6.70

More entries:
What pKd appears in the records for this compound with UniProt:P61964? COc1cc(C(F)(F)F)c(C(=O)Nc2cc(-c3cc(CN4CC[C@@H](S(C)(=O)=O)C4)ccc3F)ccc2N2CCN(C)CC2)cn1
< 6.70
